Data provenance: paper PMC9303693

Format: in vivo, human
measurement setup: both, human, plasma, po, 50 mg, t1/2, total plasma acalabrutinib; single oral 50-mg dose; Moderate (n = 6); arithmetic mean (SD)
property: half-life (min)
Respond numerically; units are min and should not be typed.

Form field: reported half-life of "CC#CC(=O)N1CCC[C@H]1c1nc(-c2ccc(C(=O)Nc3ccccn3)cc2)c2c(N)nccn12" 474

----------
Assay type: in vivo, human
measurement setup: both, human, plasma, po, 50 mg, Cmax, total plasma acalabrutinib; single oral 50-mg dose, fasted; Mild, Child-Pugh class A (n = 6); geometric mean (geometric CV%)
property: Cmax (ng/mL)
Respond numerically; units are ng/mL and should not be typed.

Form field: reported Cmax of CC#CC(=O)N1CCC[C@H]1c1nc(-c2ccc(C(=O)Nc3ccccn3)cc2)c2c(N)nccn12 [Acalabrutinib] 292

----------
Format: in vivo, human
measurement setup: both, human, plasma, po, 50 mg, Cmax, total plasma acalabrutinib; single oral 50-mg dose, fasted; Moderate, Child-Pugh class B (n = 6); geometric mean (geometric CV%)
property: Cmax (ng/mL)
Respond numerically; units are ng/mL and should not be typed.

Form field: reported Cmax of "CC#CC(=O)N1CCC[C@H]1c1nc(-c2ccc(C(=O)Nc3ccccn3)cc2)c2c(N)nccn12" 156

----------
Type: in vivo, human
measurement setup: both, human, plasma, oral, 50 mg, Cmax, LS Mean, plasma acalabrutinib; ANOVA, exponentiated LSM; Moderate, n 6
property: Cmax (ng/mL)
Respond numerically; units are ng/mL and should not be typed.

Form field: reported Cmax of "CC#CC(=O)N1CCC[C@H]1c1nc(-c2ccc(C(=O)Nc3ccccn3)cc2)c2c(N)nccn12" 156

----------
assay summary: In vitro protein binding in human plasma
Type: in vitro ADME
measurement setup: human, plasma
property: fraction unbound
Please reply with the number alone, leaving off any unit.

Form field: reported fraction unbound of "CC#CC(=O)N1CCC[C@H]1c1nc(-c2ccc(C(=O)Nc3ccccn3)cc2)c2c(N)nccn12" 0.025

----------
assay summary: Urinary excretion and renal clearance after a single 50-mg dose
Type: in vivo, human
measurement setup: human, urine, oral, 50 mg, mean renal clearance, acalabrutinib; subjects with severe hepatic impairment
property: CL renal (mL/min)
Respond numerically; units are mL/min and should not be typed.

Form field: reported CL renal of CC#CC(=O)N1CCC[C@H]1c1nc(-c2ccc(C(=O)Nc3ccccn3)cc2)c2c(N)nccn12 [Acalabrutinib] 12.9

----------
Assay type: in vivo, human
measurement setup: both, human, plasma, po, 50 mg, Vz/F, acalabrutinib; single oral 50-mg dose; Control (n = 13); arithmetic mean (SD)
property: Vd/F (L)
Respond numerically; units are L and should not be typed.

Form field: reported Vd/F of "CC#CC(=O)N1CCC[C@H]1c1nc(-c2ccc(C(=O)Nc3ccccn3)cc2)c2c(N)nccn12" 722

----------
Type: in vivo, human
measurement setup: both, human, plasma, po, 50 mg, t1/2, total plasma acalabrutinib; single oral 50-mg dose; Control (n = 13); arithmetic mean (SD)
property: half-life (h)
Respond numerically; units are h and should not be typed.

Form field: reported half-life of "CC#CC(=O)N1CCC[C@H]1c1nc(-c2ccc(C(=O)Nc3ccccn3)cc2)c2c(N)nccn12" 2.2

----------
system tested: human serum albumin (Homo sapiens, UniProt P02768)
Sequence (P02768 25-609): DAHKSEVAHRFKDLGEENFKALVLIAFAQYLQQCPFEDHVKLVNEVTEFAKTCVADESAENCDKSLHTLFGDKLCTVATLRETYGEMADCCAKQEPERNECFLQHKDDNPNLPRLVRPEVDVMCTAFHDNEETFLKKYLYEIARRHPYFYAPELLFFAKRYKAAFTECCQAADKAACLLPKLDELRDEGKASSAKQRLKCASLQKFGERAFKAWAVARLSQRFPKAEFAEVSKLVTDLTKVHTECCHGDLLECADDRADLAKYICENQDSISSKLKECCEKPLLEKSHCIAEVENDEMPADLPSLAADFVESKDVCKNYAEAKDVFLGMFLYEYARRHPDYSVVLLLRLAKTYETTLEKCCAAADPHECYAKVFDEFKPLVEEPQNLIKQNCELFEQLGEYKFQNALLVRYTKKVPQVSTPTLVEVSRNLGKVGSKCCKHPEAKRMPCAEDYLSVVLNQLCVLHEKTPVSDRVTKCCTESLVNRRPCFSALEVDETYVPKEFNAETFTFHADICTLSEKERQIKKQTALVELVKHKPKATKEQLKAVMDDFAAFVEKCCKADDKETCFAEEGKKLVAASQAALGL
assay summary: In vitro protein binding in human serum albumin solution
Type: in vitro ADME
property: fraction unbound

Form field: reported fraction unbound of CC#CC(=O)N1CCC[C@H]1c1nc(-c2ccc(C(=O)Nc3ccccn3)cc2)c2c(N)nccn12 [Acalabrutinib] 0.063
